Every entry's value here was drawn from the supplement of paper PMC9170038.

Tested on: MS2 coat protein
Experiment: apparent KD of MS2 coat protein; designed switch direction (-1 OFF switch, 1 ON switch): -1; higher = weaker reporter binding
Conditions: Eterna round: R95; input ligand: FMN 200 uM
Attribute: apparent KD of MS2 coat protein
Unit nM implied. Number only.

GCCAGAGCAGGAUAUUCAAUAUCUCACAUGAGGAUCACCCAUGUCCAUCGAAAGAUGGAGGGAGAAGGGCUCUGGC [Mat - Exclusion 5 - Eli mod - D92] (puzzle: Exclusion 5): 37.3
GACUGGACGUGGUCUGGUUACAUGAGGAUCACCCAUGUAGGUCUAAGAACAUGCCUUUUGUACGCUCGUCUUAUAUA [JR_SV3TOV1_Sub065] (puzzle: Sensor v3, turn-off variant 1): 37.9
CUGGUCCGAGGAUAUAUUAAGUGAUACAUGAGGAUCACCCAUGUAAUUUAAUGGAUAUAAAUAGAAGGCGGACUAG [Mat - Exclusion 5 - JL mod - D48] (puzzle: Exclusion 5): 42.9
AAUAGGACAGGAUAUCCGGAGUCGAACAUGAGGAUCACCCAUGUGAUGAGGAUGUUCGCUGGAGAAGGGUCGGGCU [Teonus] (puzzle: Exclusion 5): 83.9
AGUAGUUGUUUCCGUUCUUACAUGAGGAUCACCCAUGUUUCUUGUCGUGCACGCGAUGCUCGUCAGACUACCAGAUG [salish99_TOv1_r3_058] (puzzle: Sensor v3, turn-off variant 1): 52.5
GUUAAGUGAGGAUAUGGUAAAUUAAUUAUUAAUUAAUUAAUCCAGAAGGCACAUGAGGAUCACCCAUGUAAAUG [Mat - Exclusion 4 - D87] (puzzle: Exclusion 4): 54.6
GAAAAGGUAGGAUAUACGAAAAAAAAGGGUAGAAAAAAAACACAUGAGGAUCACCCAUGUAGAAGGACCAAAAC [salish99_ex2_r3_052] (puzzle: Exclusion 2): 94.7
AGUACUAACACGGAAGUGUUAGUACAAUAAGCUUGUGUUACAUGAGGAUCACCCAUGUCCUCAUAAGCUCGUCUUAU [Mat - Sensor v3 - Turn-off var 2 - D61] (puzzle: Sensor v3, turn-off variant 2): 113

[Q] What is its apparent KD of MS2 coat protein for MS2 coat protein? Entry: CUCUUGUCAGGAUAUCUAAGCCACCUCCGGGCGGCCGAAUUAGAGAAGGGACAUGAGGAUCACCCAUGUAAAAG [Qumabi] (puzzle: Exclusion 4)
[A] 30

[Q] What is its apparent KD of MS2 coat protein for MS2 coat protein? Entry: GAAAAGGUAGGAUAUACGAAAAAAAAGGUUAGAAAAAAAACACAUGAGGAUCACCCAUGUAGAAGGACCAAAAG [salish99_ex2_r3_067] (puzzle: Exclusion 2)
[A] 17.4
